Reported melting point values for the following molecules.

COC(=O)C1Oc2ccc(Cl)cc2C(c2ccccc2)(C2CCCCC2)O1 (stereo not given)
142 °C
COc1ccc(-c2csc(Nc3cccc(C)n3)n2)cc1OC
264 to 266 °C
CCCOc1cc(C(=O)O)cc(N)c1Cc1ccccc1
161 to 162 °C
CC(c1ccc(O)cc1)C(CS)C(=O)NC(Cc1ccc(O)cc1)C(=O)O (stereo not given)
115 °C
CCOC(=O)c1cnc2c3cc(NC(=O)CC(C)(C)C)ccc3ncn2c1=O
253 to 254 °C
Cc1cccc(S(=O)(=O)N2Cc3ccccc3C2)c1
175 to 177 °C

Lookup result for `COC(=O)c1ccc(-c2n[nH]c(-c3ccccc3)n2)cc1` ; measured melting point: 243 to 244 °C

Lookup result for CN1C(=O)C2(COc3cc4c(cc32)OCCO4)c2c(OCc3ncccc3C(F)(F)F)cccc21 (stereo not given) ; measured melting point: 157 to 159 °C

Lookup result for `Cc1cccc2c1Oc1ccccc1N2` ; measured melting point: 91 °C

Lookup result for `Cn1nc(C(F)(F)F)n(-c2ccc([N+](=O)[O-])cc2Cl)c1=S` ; measured melting point: 152 to 155 °C
